B1: LPCAT4 (parent)
chain: HDPLYGKLFSTYLRPPHTSRGTSQ

- Variants of: B1
- testName: protein stability index of a GFP-peptide fusion (GPS, HEK-293T) (PSI 1-6); higher = more stable;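 also: lentivirally expressed fusions sorted by FACS into six bins by GFP to DsRed ratio, PSI derived from sequencing read proportions per bin multiplied by bin number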
- runParameters: c terminus: a fixed tail appended
propertyName: protein stability index
Provide a numeric answer; units are not to be included.

Solved entries (count: 5):
In: // Input: T11C . Output its protein stability index only.
Out: 2.48

In: // Input: L8W . Output its protein stability index only.
Out: 2.37

In: // Input: S19G . Output its protein stability index only.
Out: 2.8

In: // Input: D2I . Output its protein stability index only.
Out: 1.96

In: // Input: P3R . Output its protein stability index only.
Out: 2.55

Others:
In: // Input: T11Q . Output its protein stability index only.
Out: 3.43

In: // Input: Q24G . Output its protein stability index only.
Out: 2.36

In: // Input: S19Q . Output its protein stability index only.
Out: 2.51

In: // Input: S23Q . Output its protein stability index only.
Out: 2.52

In: // Input: L13T . Output its protein stability index only.
Out: 3.72

In: // Input: L13P . Output its protein stability index only.
Out: 3.21
